Consider the following molecules; for each one, report its melting point.

In: For the molecule shown here, COC(=O)c1[nH]c2c(OCc3ccccc3)cc([N+](=O)[O-])c(CCCl)c2c1C(=O)OC , give the reported melting point.
Out: 122 to 128 °C

In: Entry to check: Nc1ccc(Oc2ccc(C34CC5CC(C3)CC(c3ccc(Oc6ccc(N)c(O)c6)cc3)(C5)C4)cc2)cc1O
Out: 166 to 169 °C

In: Entry to check: Cc1ncc2n1-c1ccc(Cl)cc1C(c1ccccc1F)N=C2 (stereo not given)
Out: 180 to 181 °C

In: Entry to check: NCCOc1ccc(C=CC(=O)N2CCc3c([nH]c4ccccc34)C2c2ccc3c(c2)CCO3)cc1 (stereo not given)
Out: 186 °C

In: Entry to check: CN1C(=O)C(NC(=O)CCc2ccc(Cl)cc2Cl)N=C(c2ccccc2)c2ccncc21 (stereo not given)
Out: 220 to 221 °C

====

Consider the following compounds; for each one, report its melting point.

In: For the compound shown here, O=C(Nc1ccc(Br)cn1)Nc1cccc2c1C1CC3(CCN1C2=O)SCCS3 (stereo not given) , give the reported melting point.
Out: 240 °C

In: Entry to check: CCOC(=O)CNC(=S)Cc1cnc(C)c2c1COC(C)(C)O2
Out: 156 to 158 °C

In: Entry to check: COC(=O)c1[nH]cc(C(=O)NCc2ccc(F)cc2)c(=O)c1OC
Out: 242 to 244 °C

In: Entry to check: CCc1nc(Cl)c(C=O)n1Cc1ccc2oc(-c3ccccc3NC(=O)OC(C)(C)C)c(Br)c2c1
Out: 65 to 66 °C

In: Entry to check: C=CCn1c(=O)c(C(=O)OCC)c(N2CCN(C(=O)c3cccs3)CC2)c2cccnc21
Out: 89 to 96 °C

====

Consider the following compounds; for each one, report its melting point.

In: For the compound shown here, CC(=O)Nc1ccc(C(=O)Nc2ccccc2NC(=O)CNC(=O)OC(C)(C)C)cc1 , give the reported melting point.
Out: 125 to 126 °C

In: Entry to check: CC(=O)N1CCN(c2ccc(Nc3nccc(-c4sc(-c5cccs5)nc4C)n3)cc2)CC1
Out: 134 to 136 °C

In: Entry to check: C=CCOc1cccc([N+](=O)[O-])c1OC
Out: 93 to 94 °C

In: Entry to check: CCN(CC)C(=O)Cc1ccc(NC(=O)/C=C/c2cnn(C)c2-c2ccc(F)cc2)cc1
Out: 175 to 176 °C

In: Entry to check: CSc1cccc(NC(=O)N(O)C2CCCCC2)c1
Out: 147 to 148 °C

In: Entry to check: Cc1cc(C(C)(C)CC(C)(C)C)c(O)c(C)c1CC(N)=O
Out: 179 to 181 °C

In: Entry to check: Cn1cc(C2=C(c3c4n(c5ccccc35)CCC4)C(=O)NC2=O)c2ccccc21
Out: 260 to 270 °C

In: Entry to check: O=C(O)Cc1c(C(=O)c2ccc(Cl)cc2)[nH]c2ccccc12
Out: 221 to 224 °C

In: Entry to check: CC(=O)NCc1nc(-c2ccc3c(c2)Nc2ccccc2S3)cs1
Out: 219 to 221 °C

In: Entry to check: CCCOCCCCOCCCCCCNCC(O)c1cc(Cl)c(N)c(Cl)c1 (stereo unspecified)
Out: 51 to 53 °C

In: Entry to check: CNC(=O)Nc1ccc(S(N)(=O)=O)cc1
Out: 211 to 213 °C

In: Entry to check: COc1cccc2c3c([nH]c12)CCNC3=O
Out: 255 to 258 °C

In: Entry to check: CN(c1nc(-c2cc3ccccc3[nH]c2=O)cs1)S(=O)(=O)c1ccccc1
Out: 242 to 244 °C

In: Entry to check: Clc1ccc(-c2ccn3nccc3n2)cc1
Out: 178 to 180 °C

In: Entry to check: CCc1cc2c(s1)N(C(=O)N(C)C)CCN=C2c1ccccc1
Out: 237 to 238 °C

In: Entry to check: CCOCCOc1cccc(-c2ccc3c(c2)C=C(C(=O)Nc2ccc(CN(C)C4CCOCC4)cc2)CCS3(=O)=O)c1
Out: 180 to 182 °C
